Provenance of the data: patent US11696913B2

Exercise: state measured pest or weed control at 0.2 µg/cm2, 0.2 µg/cm2 for each of the compounds provided.
system: Ixodes ricinus; assay: In vitro contact test with adult hard ticks (Ixodes ricinus); conditions: dose 0.2 μg/cm^2, 48 h, read-out: acaricidal activity
Numbers only, in %.

Known pest or weed control at 0.2 µg/cm2, 0.2 µg/cm2 results, listed for orientation:
>  <mol>
O=C(Nc1cccc(C(=O)Nc2c(Br)cc(C(F)(C(F)(F)F)C(F)(F)F)cc2OC(F)F)c1F)c1ccc(F)cc1

>  <obs-value>
90

$$$$
>  <mol>
N#Cc1ccc(C(=O)Nc2cccc(C(=O)Nc3c(Br)cc(C(F)(C(F)(F)F)C(F)(F)F)cc3OC(F)(F)F)c2F)cc1

>  <obs-value>
90

$$$$
>  <mol>
O=C(Nc1cccc(C(=O)Nc2c(Br)cc(C(F)(C(F)(F)F)C(F)(F)F)cc2OC(F)(F)F)c1)c1ccc(F)cc1

>  <obs-value>
90

$$$$

Here are 3 compounds. What values of pest or weed control at 0.2 µg/cm2, 0.2 µg/cm2 were reported for them?
1. N#Cc1ccc(C(=O)Nc2cccc(C(=O)Nc3c(Br)cc(C(F)(C(F)(F)F)C(F)(F)F)cc3C(F)(F)F)c2F)cc1
2. O=C(Nc1cccc(C(=O)Nc2c(I)cc(C(F)(C(F)(F)F)C(F)(F)F)cc2OC(F)(F)F)c1F)c1ccc(F)cc1
3. CN(C(=O)c1ccc(F)cc1)c1cccc(C(=O)Nc2c(Br)cc(C(F)(C(F)(F)F)C(F)(F)F)cc2OC(F)F)c1F

90
90
90

* * *

test system: Ctenocephalides felis; assay: Systemic treatment in-vivo test with cat flea on rats; details: Ctenocephalides felis, ip, intraperitoneal injection, 2 mg/kg, SD 2, read-out: Geometric mean percent reduction in live flea (Ctenocephalides felis) counts compared to untreated control rats
measured-quantity: inhibition in vivo at 2 mg/kg (%)
One number for each entry, in %.

Below are 4 compounds. Give each one its inhibition in vivo at 2 mg/kg.
1. CN(C(=O)c1ccccc1)c1cccc(C(=O)Nc2c(Br)cc(C(F)(C(F)(F)F)C(F)(F)F)cc2C(F)(F)F)c1F [Compound (B), reference compound]
2. O=C(Nc1cccc(C(=O)Nc2c(I)cc(C(F)(C(F)(F)F)C(F)(F)F)cc2C(F)(F)F)c1F)c1ccc(C(F)(F)F)nc1
3. CN(C(=O)c1ccc(F)c(F)c1)c1cccc(C(=O)Nc2c(I)cc(C(F)(C(F)(F)F)C(F)(F)F)cc2C(F)(F)F)c1F
4. CN(C(=O)c1ccc(F)nc1)c1cccc(C(=O)Nc2c(I)cc(C(F)(C(F)(F)F)C(F)(F)F)cc2C(F)(F)F)c1F

[97, 100, 100, 100]

* * *

tested on: Ixodes ricinus; assay: In vitro contact test with adult hard ticks (Ixodes ricinus); settings: dose 0.2 μg/cm^2, 48 h, read-out: acaricidal activity
measured-quantity: pest or weed control at 0.2 µg/cm2, 0.2 µg/cm2 (%)
Give bare numbers, in %.

Each compound below has a reported value. Please supply its pest or weed control at 0.2 µg/cm2, 0.2 µg/cm2.
1. N#Cc1ccc(C(=O)Nc2cccc(C(=O)Nc3c(Br)cc(C(F)(C(F)(F)F)C(F)(F)F)cc3OC(F)(F)F)c2)cc1
2. O=C(Nc1cccc(C(=O)Nc2c(I)cc(C(F)(C(F)(F)F)C(F)(F)F)cc2C(F)(F)F)c1F)c1ccc(C(F)F)nc1
3. O=C(Nc1cccc(C(=O)Nc2c(I)cc(C(F)(C(F)(F)F)C(F)(F)F)cc2OC(F)F)c1F)c1ccc(C(F)(F)F)nc1

1: 90; 2: 90; 3: 90

* * *

test system: Rhipicephalus (Boophilus) microplus; test: In vitro injection test with Rhipicephalus (Boophilus) microplus (BOOPMI Inj); settings: 168 h, dose 0.16 μg/animal injected, laid fertile eggs after 7 days, read-out: acaricidal activity
measured-quantity: pest or weed control at 0.00016 mg (%)
Answers are plain numbers, in %.

>  <compound>
O=C(Nc1c(I)cc(C(F)(C(F)(F)F)C(F)(F)F)cc1C(F)(F)F)c1cccc(NC(=O)c2ccc([N+](=O)[O-])cc2Cl)c1

>  <pest or weed control at 0.00016 mg, %>
100

$$$$
>  <compound>
CN(C(=O)c1ccc(S(C)(=O)=O)cc1)c1cccc(C(=O)Nc2c(I)cc(C(F)(C(F)(F)F)C(F)(F)F)cc2C(F)(F)F)c1F

>  <pest or weed control at 0.00016 mg, %>
100

$$$$
>  <compound>
COc1ccc(C(=O)N(C)c2cccc(C(=O)Nc3c(I)cc(C(F)(C(F)(F)F)C(F)(F)F)cc3C(F)(F)F)c2F)cc1

>  <pest or weed control at 0.00016 mg, %>
100

$$$$

Would you mind listing pest or weed control at 0.00016 mg for each of the following compounds?
1. O=C(Nc1cccc(C(=O)Nc2c(I)cc(C(F)(C(F)(F)F)C(F)(F)F)cc2C(F)(F)F)c1F)c1ccc(C(F)F)nc1
2. O=C(Nc1cccc(C(=O)Nc2c(Br)cc(C(F)(C(F)(F)F)C(F)(F)F)cc2OC(F)(F)F)c1F)c1ccc(C(F)(F)F)nc1
3. CN(C(=O)c1ccc(F)cc1F)c1cccc(C(=O)Nc2c(I)cc(C(F)(C(F)(F)F)C(F)(F)F)cc2C(F)(F)F)c1F
4. CN(C(=O)c1ccc(F)cc1)c1cccc(C(=O)Nc2c(I)cc(C(F)(C(F)(F)F)C(F)(F)C(F)(F)F)cc2OC(F)F)c1F (stereo not shown)
5. CN(C(=O)c1ccc(C#N)cc1)c1cccc(C(=O)Nc2c(Br)cc(C(F)(C(F)(F)F)C(F)(F)F)cc2OC(F)(F)F)c1

1. 100
2. 100
3. 100
4. 100
5. 100

For each of the items listed, what is its pest or weed control at 0.00016 mg?
1. O=C(Nc1c(I)cc(C(F)(C(F)(F)F)C(F)(F)F)cc1C(F)(F)F)c1cccc(NC(=O)c2ccc(Cl)cc2Br)c1
2. CN(C(=O)c1ccc(F)cc1)c1cccc(C(=O)Nc2c(I)cc(C(F)(C(F)(F)F)C(F)(F)F)cc2S(=O)(=O)C(F)(F)F)c1F
3. O=C(Nc1cccc(C(=O)Nc2c(Br)cc(C(F)(C(F)(F)F)C(F)(F)C(F)(F)F)cc2OC(F)F)c1F)c1ccc(F)cc1 (stereo not shown)
4. CN(C(=O)c1ccc(F)nc1)c1cccc(C(=O)Nc2c(I)cc(C(F)(C(F)(F)F)C(F)(F)C(F)(F)F)cc2C(F)(F)F)c1F (stereo not shown)
5. CN(C(=O)c1ccc(F)cc1)c1cccc(C(=O)Nc2c(I)cc(C(F)(C(F)(F)F)C(F)(F)F)cc2[S+]([O-])C(F)(F)F)c1F (stereo not shown)
6. O=C(Nc1cccc(C(=O)Nc2c(I)cc(C(F)(C(F)(F)F)C(F)(F)C(F)(F)F)cc2C(F)(F)F)c1F)c1ccc(Cl)c(Cl)c1 (stereo not shown)

1: 100; 2: 100; 3: 100; 4: 100; 5: 100; 6: 100

Here are 8 compounds. What values of pest or weed control at 0.00016 mg were reported for them?
1. O=C(Nc1cccc(C(=O)Nc2c(I)cc(C(F)(C(F)(F)F)C(F)(F)F)cc2[S+]([O-])C(F)(F)F)c1F)c1ccc(F)cc1 (stereo not shown)
2. N#Cc1ccc(C(=O)Nc2cccc(C(=O)Nc3c(Br)cc(C(F)(C(F)(F)F)C(F)(F)F)cc3OC(F)(F)F)c2F)cc1
3. CN(C(=O)c1ccc(C(F)(F)F)nc1)c1cccc(C(=O)Nc2c(I)cc(C(F)(C(F)(F)F)C(F)(F)F)cc2OC(F)(F)F)c1F
4. CN(C(=O)c1ccc(C(F)F)nc1)c1cccc(C(=O)Nc2c(I)cc(C(F)(C(F)(F)F)C(F)(F)F)cc2C(F)(F)F)c1F
5. CN(C(=O)c1ccc(OC(F)(F)F)cc1)c1cccc(C(=O)Nc2c(I)cc(C(F)(C(F)(F)F)C(F)(F)F)cc2C(F)(F)F)c1F
6. O=C(Nc1cccc(C(=O)Nc2c(I)cc(C(F)(C(F)(F)F)C(F)(F)F)cc2OC(F)F)c1F)c1ccc(F)cc1
7. O=C(Nc1cccc(C(=O)Nc2c(I)cc(C(F)(C(F)(F)F)C(F)(F)F)cc2OC(F)F)c1F)c1ccc(C(F)(F)F)nc1
8. CN(C(=O)c1ccc(C(F)(F)F)nc1)c1cccc(C(=O)Nc2c(I)cc(C(F)(C(F)(F)F)C(F)(F)C(F)(F)F)cc2C(F)(F)F)c1F (stereo not shown)

1. 100
2. 100
3. 100
4. 100
5. 100
6. 100
7. 100
8. 100

Please give pest or weed control at 0.00016 mg for each item listed below.
1. CN(C(=O)c1ccc(S(N)(=O)=O)cc1)c1cccc(C(=O)Nc2c(I)cc(C(F)(C(F)(F)F)C(F)(F)F)cc2C(F)(F)F)c1F
2. N#Cc1ccc(C(=O)Nc2cccc(C(=O)Nc3c(I)cc(C(F)(C(F)(F)F)C(F)(F)F)cc3C(F)(F)F)c2F)cn1
3. CN(C(=O)c1ccc(F)cc1)c1cccc(C(=O)Nc2c(Br)cc(C(F)(C(F)(F)F)C(F)(F)C(F)(F)F)cc2OC(F)F)c1F (stereo not shown)

[100, 100, 100]
